System: SH-SY5Y cells
testDescription: Nuclear count from microscopy images (cellular growth and toxicity)
experimentalConditions: PKIS2 primary screening
Listed below: Nuclear Count values for each entry.
metric: Nuclear Count

[
  {
    "compound": "O=C(NCCCN1CCOCC1)c1cccc(Nc2nccc(Nc3ccc(Oc4ccccc4)cc3)n2)c1 [GW663929]",
    "reading": 103.04
  },
  {
    "compound": "Cc1ccc(NC(=O)Nc2ccccc2)cc1-c1ccc(C(=O)Nc2ccncc2)cc1 [UNC10224992A]",
    "reading": 89.66
  },
  {
    "compound": "Nc1cccc(-c2ccc3c(N)n[nH]c3c2)n1 [GSK2192730]",
    "reading": 95.98
  },
  {
    "compound": "Nc1nc(-c2cccnc2)c(-c2ccnc3ccccc23)s1 [UNC10225309A]",
    "reading": 71.32
  },
  {
    "compound": "C[C@@H](Oc1cc(-n2cnc3ccc(NC(=O)NC(C)(C)C)cc32)sc1C(N)=O)c1ccccc1Cl [UNC10225287A]",
    "reading": 136.32
  },
  {
    "compound": "Cc1n[nH]c2ccc(-c3cc(OC[C@@H](N)Cc4ccccc4)cnc3-c3ccoc3)cc12.O=C(O)C(F)(F)F.O=C(O)C(F)(F)F [UNC10225447A]",
    "reading": 74.49
  },
  {
    "compound": "Cl.c1ccc(Cn2ccc3cc(Nc4ncnc5ccccc45)ccc32)cc1 [UNC10225488A]",
    "reading": 128.88
  },
  {
    "compound": "COc1cc(Nc2nccc(N3CCC(NC(=O)C4COc5ccccc5O4)C3)n2)cc(OC)c1OC (centres unmarked) [GSK1379761]",
    "reading": 125.75
  },
  {
    "compound": "CSc1nccc(-c2c(-c3ccc(F)cc3)ncn2CCCN2CCOCC2)n1.Cl [UNC10225426A]",
    "reading": 113.07
  },
  {
    "compound": "O=C(Nc1cccc(-c2nn3ncccc3c2-c2ccnc(Nc3ccccc3)n2)c1)c1c(F)cccc1F [UNC10225232A]",
    "reading": 127.09
  },
  {
    "compound": "O=C(NCCNc1ccnc(Nc2ccc(F)cc2)n1)Nc1ccccc1F [GSK1379880]",
    "reading": 133.27
  },
  {
    "compound": "Cn1cc(-c2ccc3c(c2)CCN3C(=O)Cc2cc(F)cc(F)c2F)c2c(N)ncnc21 [UNC10225071A]",
    "reading": 91.42
  },
  {
    "compound": "Cc1ccc(Nc2ccnc(Nc3ccc(C)c(F)c3)n2)cc1O [GW582868]",
    "reading": 87.67
  },
  {
    "compound": "Cc1cccc(-c2cc(Nc3ccncc3)c3ccccc3n2)n1 [GSK223675]",
    "reading": 85.07
  },
  {
    "compound": "CC(C)c1ccc(O)cc1Nc1ccnc2ccc(C(F)(F)F)cc12 [UNC10225322A]",
    "reading": 91.30
  },
  {
    "compound": "COc1cc2ncn(-c3cc(OCCCc4ccccc4)c(C(N)=O)s3)c2cc1OC [UNC10225450A]",
    "reading": 118.22
  },
  {
    "compound": "COc1cc2ncn(-c3cc(OCc4ccncc4)c(C(N)=O)s3)c2cc1OC [UNC10225069A]",
    "reading": 104.39
  },
  {
    "compound": "CN(C)CCN(C)C(=O)c1cc(-c2ccncc2)c(-c2ccc(Cl)c(O)c2)o1.Cl.Cl [UNC10225256A]",
    "reading": 130.04
  },
  {
    "compound": "Cc1ccc(NC(=O)Nc2ccc(Cl)cc2)cc1-c1ccc(C(=O)Nc2ccncc2)cc1 [UNC10225388A]",
    "reading": 82.28
  },
  {
    "compound": "Cc1ccc(C(=O)Nc2ccc(Nc3ccnc4cc(-c5ccccn5)ccc34)cc2O)cc1.Cl [UNC10225182A]",
    "reading": 71.22
  },
  {
    "compound": "C=CC(=O)Nc1cc2c(Nc3ccc(F)c(Cl)c3)ncnc2cc1OCCCN1CCOCC1 [UNC10126563B]",
    "reading": 114.57
  },
  {
    "compound": "COc1ccc(CNC(=O)NC2CCN(c3ccnc(Nc4ccc(F)cc4)n3)C2)cc1 (centres unmarked) [GSK1379706]",
    "reading": 119.74
  },
  {
    "compound": "Cc1cccc(Nc2nc(N[C@H]3CCNC3)ncc2C(N)=O)c1.Cl [UNC10225356A]",
    "reading": 97.71
  },
  {
    "compound": "Cl.c1ccc(Cn2ncc3cc(Nc4ncnc5ccccc45)ccc32)cc1 [UNC10225085A]",
    "reading": 82.39
  },
  {
    "compound": "Cl.c1ccc(Oc2ccc(Nc3ccnc4cc(-c5ccc(CN6CCNCC6)o5)ccc34)cc2)nc1 [UNC10225130B]",
    "reading": 88.02
  },
  {
    "compound": "NS(=O)(=O)c1cccc(-c2ccc3nccc(-c4cccc(S(N)(=O)=O)c4)c3c2)c1 [UNC10225379A]",
    "reading": 79.09
  },
  {
    "compound": "Cc1ccc(NC(=O)Nc2cccc(Cl)c2)cc1-c1ccc(C(=O)Nc2ccncc2)cc1 [UNC10225019A]",
    "reading": 106.82
  },
  {
    "compound": "N#Cc1ccc(CCNc2nccc(-c3cccc(CN4CCNCC4)c3)n2)cc1 [GSK2137462]",
    "reading": 74.38
  },
  {
    "compound": "CC(=O)N1CCN(c2ccc(Nc3nccc(-c4sc(C(C)C)nc4-c4cccc(NS(=O)(=O)c5cccc(Cl)c5)c4)n3)cn2)CC1 [UNC10225481A]",
    "reading": 128.41
  }
]

Reference source for all entries: paper PMC9851200
